# target-or-system: hSSB1 (Homo sapiens, UniProt Q9BQ15 Q9BQ15:1-211)
# Sequence (Q9BQ15 whole entry, one chain of several): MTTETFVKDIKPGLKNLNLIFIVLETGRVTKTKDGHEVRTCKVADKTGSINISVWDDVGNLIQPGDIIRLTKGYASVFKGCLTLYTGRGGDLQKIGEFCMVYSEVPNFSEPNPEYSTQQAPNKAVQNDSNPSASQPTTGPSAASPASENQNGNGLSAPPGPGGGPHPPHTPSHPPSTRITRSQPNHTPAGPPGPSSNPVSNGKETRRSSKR
# assay-info: SPR
Threshold rule: binding signal greater than or equal to 0.7 normalized Rmax is true; below that, false.

Solved entries (count: 4):
>>> assigned_label("AGGCAGCAGUACGA (ssRNA, 2'-OMe all, full PS) [LSA_ATG both-end truncation 14 nt]")
"true"
>>> assigned_label("CAGCAGCAGAGUCUUCAUCAU (ssRNA, 2'-OMe all, full PS) [DKLS354527 (SEQ 21)]")
"true"
>>> assigned_label("CCAGUGAGCCGAACUUCUCU (ssRNA, 2'-OMe all, full PS) [DKLS459014 (SEQ 62)]")
"false"
>>> assigned_label("GUCUCCGUCGUCAUGCUGCC (ssRNA, 2'-OMe all, full PS) [ASO_ATG (DKLS421748)]")
"false"

Please find the next binder below.
Record GGUCGUAAUACUUUCACUUA (ssRNA, 2'-OMe all, full PS) [DKLS629224 (SEQ 12)] ; criterion: binding signal no lower than 0.7 normalized Rmax. Met? true
